Tested on: B16F10 melanoma cells expressing the intron-derived SL8 antigen
Assay: T-cell assay: B3Z specific T-cell activation by B16F10 cells expressing the intron-derived SL8 antigen
Type: cell-based, mouse
Details: B16F10, 20 μM, O/N
QUANTITY MEASURED: PTP-SL8 presentation (B3Z T-cell activation)

{"columns": ["COMPOUND SMILES", "TESTED SYSTEM", "RESULT"],
 "data": [
  ["COc1ccc2c(C)nc(Nc3ccc(OC)nc3)nc2c1", "B16F10 melanoma cells expressing the intron-derived SL8 antigen", "increase"],
  ["Cc1nc(Nc2nc(C)c3ccc(OCCN4CCOCC4)cc3n2)[nH]c(=O)c1C", "B16F10 melanoma cells expressing the intron-derived SL8 antigen", "increase"],
  ["COc1ccc2c(C)nc(Nc3nccc(OC)n3)nc2c1", "B16F10 melanoma cells expressing the intron-derived SL8 antigen", "increase"]
]}

Every entry's value here was drawn from patent US12213978B2.
